# OD450 listing for each entry below
Target: T1, human FOLR1 protein, His Tag (ACRO FO1-H52H1) (human, UniProt P15328 25-233)
T1 construct: Bought protein coated on ELISA plates; not shown: His tag
T1 sequence (P15328 25-233 limits assumed): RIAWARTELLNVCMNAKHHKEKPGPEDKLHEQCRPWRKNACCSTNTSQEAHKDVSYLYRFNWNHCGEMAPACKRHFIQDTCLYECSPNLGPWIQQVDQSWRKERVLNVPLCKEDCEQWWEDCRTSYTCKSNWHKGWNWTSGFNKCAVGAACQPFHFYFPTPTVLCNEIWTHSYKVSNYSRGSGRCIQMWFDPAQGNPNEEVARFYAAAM
Assay: ELISA, coated hFOLR1-His, supernatant 5x
quantity-measured: OD450 (OD450)

1. F26 (antibody, V domains shown, Tested as full-length IgG with an IgG1 Fc from HEK293, as supernatant or purified; also called clone F26; anti-FOLR1 antibody F26) VH: EVQLLESGGGVVQRGRSLRLSCAASGFTFSSYGMHWVRQAPGKGLEWVAVISYDGSNKYYADSVKGRFTISRDNSKNTLYLPMNSLRAEDTAVYYCARPRAYYGAYGSSFDYWGQGTQVTVSS VL: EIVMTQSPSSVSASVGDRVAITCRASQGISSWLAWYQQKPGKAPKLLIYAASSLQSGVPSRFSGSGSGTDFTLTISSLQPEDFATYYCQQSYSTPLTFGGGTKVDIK; 1.51
2. F8 (antibody, V domains shown, Tested as full-length IgG with an IgG1 Fc from HEK293, as supernatant or purified; also called clone F8; anti-FOLR1 antibody F8) VH: EVQLLESGGGVVQHGRSLRLSCAASGFTFSSYGMHWVRQAPGKGLEWVAVISYDGSNKYYADSVKGRFTISRDNSKNTLYLQMNSLRAEDTAVYYCARPRAYYGAYGSSFDYWGQGTQVTVSS VL: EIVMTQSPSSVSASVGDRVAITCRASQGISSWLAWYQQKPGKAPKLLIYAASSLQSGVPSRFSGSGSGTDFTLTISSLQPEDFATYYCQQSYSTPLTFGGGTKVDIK; 1.65
3. F123 (antibody, V domains shown, Tested as full-length IgG with an IgG1 Fc from HEK293, as supernatant or purified; also called clone F123; anti-FOLR1 antibody F123) VH: EVQLLESGGGVVQPERSLRLSCAASGFTFSSYGMHWVRQAPGKGLEWVAVISYDGSNKYYADSVKGRFTISRANSKNTLYLQMNSLRAEDTAVYYCARPRAYYGAYGSSFDYWGQGTQVTVSS VL: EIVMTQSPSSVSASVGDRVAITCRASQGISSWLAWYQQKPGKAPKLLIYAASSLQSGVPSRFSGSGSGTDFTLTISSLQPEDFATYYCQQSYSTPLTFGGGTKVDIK; 1.47
